# experimental-target: T1, Human GUCY2C ECD Cleaved (human, UniProt P25092 24-430)
# T1 construct: also called human GUCY2c extracellular domain protein (ECD)
# T1 sequence (P25092 other isoform, or with tags, fused parts or gaps): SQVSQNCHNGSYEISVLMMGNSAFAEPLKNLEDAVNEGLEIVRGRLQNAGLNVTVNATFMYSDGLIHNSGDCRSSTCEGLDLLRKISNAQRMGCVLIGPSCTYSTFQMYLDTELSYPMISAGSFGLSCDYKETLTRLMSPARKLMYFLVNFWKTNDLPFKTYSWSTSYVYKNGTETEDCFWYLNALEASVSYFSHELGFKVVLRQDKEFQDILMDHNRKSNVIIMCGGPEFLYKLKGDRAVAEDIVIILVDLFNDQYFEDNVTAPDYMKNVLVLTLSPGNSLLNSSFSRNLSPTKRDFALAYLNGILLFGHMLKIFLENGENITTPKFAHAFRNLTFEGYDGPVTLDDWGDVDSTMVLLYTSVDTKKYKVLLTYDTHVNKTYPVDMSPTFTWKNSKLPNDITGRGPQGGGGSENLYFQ
# assay-info: SPR, human IgG1 against human GUCY2c ECD
value-type: kon (M⁻¹ s⁻¹)
Please state the figure in M⁻¹ s⁻¹; there is no need to write the unit.

The following binders have reported results that may help.
>>> data_value("GUCY2C-1705 (antibody, human IgG1, V domains shown, full human IgG1/kappa) VH: EVQLVESGGGLVQPGGSLRLSCAASGFTFSSYWMHWVRQAPGKGLEWIGEIKPSRGFTNVHEKFKDRFTISVDKAKNSAYLQMNSLRAEDTAVYYCTRTITTTEGYWFFDVWGQGTLVTVSS VL: DIQLTQSPSSLSASVGDRVTITCRASESVDYYGSSLMQWYQQKPGKAPKLLIYAASKLASGVPSRFSGSGSGTDFTLTISSLQPEDFATYYCQQTRKAYTFGQGTKLEIK")
239000
>>> data_value("GUCY2C-1703 (antibody, human IgG1, V domains shown, full human IgG1/kappa) VH: EVQLVESGGGLVQPGGSLRLSCAASGFTFSSYWMHWVRQAPGKGLEWIGEIKPSNRWNNVHEKFKDRFTISVDKAKNSAYLQMNSLRAEDTAVYYCTRTITTTEGYWFFDVWGQGTLVTVSS VL: DIQLTQSPSSLSASVGDRVTITCRASESVDYYGSSLMQWYQQKPGKAPKLLIYAASKLASGVPSRFSGSGSGTDFTLTISSLQPEDFATYYCQQTRKAYTFGQGTKLEIK")
210000
>>> data_value("GUCY2C-1715 (antibody, human IgG1, V domains shown, full human IgG1/kappa) VH: EVQLVESGGGLVQPGGSLRLSCAASGFTFSSYWMHWVRQAPGKGLEWIGEIKPSTKYTNVHEKFKDRFTISVDKAKNSAYLQMNSLRAEDTAVYYCTRTIFTNEGYWFFDVWGQGTLVTVSS VL: DIQLTQSPSSLSASVGDRVTITCRASESVSIYGSSLMQWYQQKPGKAPKLLIYAASKLASGVPSRFSGSGSGTDFTLTISSLQPEDFATYYCQQTRKAYTFGQGTKLEIK")
272000

Input: Give the reported kon for this binder. GUCY2C-1696 (antibody, human IgG1, V domains shown, full human IgG1/kappa) VH: EVQLVESGGGLVQPGGSLRLSCAASGFTFSTRWMHWVRQAPGKGLEWIGEIKPSNKLTNVHEKFKDRFTISVDKAKNSAYLQMNSLRAEDTAVYYCARTITTTEGYWFLSDWGQGTLVTVSS VL: DIQLTQSPSSLSASVGDRVTITCRASESVDYYGHSLMQWYQQKPGKAPKLLIYAASKLASGVPSRFSGSGSGTDFTLTISSLQPEDFATYYCQQTRKAYTFGQGTKLEIK
Output: 144000
